The entries below are paired with their reported MIC.
Test: In vitro antibacterial activity against Pseudomonas cepacia ATCC 25608
Assay type: functional
Conditions: Burkholderia cepacia

| compound | MIC (µg/mL) |
| --- | --- |
| Cc1c(F)cc2c(=O)c(C(=O)O)cn3c2c1CCC3 | 6.2 |
| Cc1c(F)cc2c(=O)c(C(=O)O)cn3c2c1CC[C@@H]3C | 0.8 |
| Cc1c(F)cc2c(=O)c(C(=O)O)cn3c2c1CCC3C (racemic) | 0.8 |
| Cc1c(F)cc2c(=O)c(C(=O)O)cn3c2c1CC[C@H]3C | 12.5 |

---

Tested on: Klebsiella pneumoniae
Assay: In vitro antibacterial activity against Klebsiella pneumoniae ATCC 23357
Assay type: functional
Examples of molecules with documented MIC follow.

| molecule | measured.on | unit.of.measurement | MIC |
| --- | --- | --- | --- |
| Cc1c(F)cc2c(=O)c(C(=O)O)cn3c2c1CC[C@H]3C | Klebsiella pneumoniae | µg/mL | 6.2 |
| Cc1c(F)cc2c(=O)c(C(=O)O)cn3c2c1CCC3C (racemic) | Klebsiella pneumoniae | µg/mL | 0.2 |
| Cc1c(F)cc2c(=O)c(C(=O)O)cn3c2c1CCC3 | Klebsiella pneumoniae | µg/mL | 0.8 |
| Cc1c(F)cc2c(=O)c(C(=O)O)cn3c2c1CC[C@@H]3C | Klebsiella pneumoniae | µg/mL | 0.1 |

---

Test system: Pseudomonas aeruginosa
Assay: In vitro antibacterial activity against Pseudomonas aeruginosa ATCC 15422
Assay type: functional

| molecule | MIC [µg/mL] |
| --- | --- |
| Cc1c(F)cc2c(=O)c(C(=O)O)cn3c2c1CCC3 | 12.5 |
| Cc1c(F)cc2c(=O)c(C(=O)O)cn3c2c1CC[C@@H]3C | 3.1 |
| Cc1c(F)cc2c(=O)c(C(=O)O)cn3c2c1CC[C@H]3C | 12.5 |
| Cc1c(F)cc2c(=O)c(C(=O)O)cn3c2c1CCC3C (racemic) | 6.2 |

---

Tested on: Haemophilus influenzae
Assay: In vitro antibacterial activity against Haemophilus influenzae ATCC 9333
Format: functional
This listing pairs molecules with measured MIC.
test.readout: MIC (µg/mL)

| molecule | result |
| --- | --- |
| Cc1c(F)cc2c(=O)c(C(=O)O)cn3c2c1CC[C@@H]3C | 0.006 |
| Cc1c(F)cc2c(=O)c(C(=O)O)cn3c2c1CCC3C (racemic) | 0.006 |
| Cc1c(F)cc2c(=O)c(C(=O)O)cn3c2c1CCC3 | 0.1 |
| Cc1c(F)cc2c(=O)c(C(=O)O)cn3c2c1CC[C@H]3C | 0.4 |

---

Parameter MIC: see the listing below.
System: Escherichia coli
Test: In vitro antibacterial activity against Escherichia coli ATCC 15221
Assay type: functional

| molecule | measured.on | unit.of.measurement | MIC |
| --- | --- | --- | --- |
| Cc1c(F)cc2c(=O)c(C(=O)O)cn3c2c1CCC3 | Escherichia coli | µg/mL | 0.8 |
| Cc1c(F)cc2c(=O)c(C(=O)O)cn3c2c1CC[C@H]3C | Escherichia coli | µg/mL | 6.2 |
| Cc1c(F)cc2c(=O)c(C(=O)O)cn3c2c1CCC3C (racemic) [IBAFLOXACIN] | Escherichia coli | µg/mL | 0.2 |
| Cc1c(F)cc2c(=O)c(C(=O)O)cn3c2c1CC[C@@H]3C | Escherichia coli | µg/mL | 0.1 |
